Ref: patent US20110082204A1

Could you please report measured logP for the items listed next?
experiment: Log P of tested compounds; assay type: physicochemical
Could you respond with only the numeric value?

Challenge: Any idea what logP was measured for COC(=O)[C@@H](C)NC(=O)[C@@H]1C[C@H](C)CC[C@H]1C(C)C [D-Ala Me Ester] ?
Response given: 2.8

Challenge: Recorded logP of CC(C)OC(=O)[C@@H](C)NC(=O)[C@@H]1C[C@H](C)CC[C@H]1C(C)C [D-Ala iPr Ester] , please.
Response given: 3.7

Challenge: Quick one: logP of CCOC(=O)[C@@H](C)NC(=O)[C@@H]1C[C@H](C)CC[C@H]1C(C)C [D-Ala Et Ester] ?
Response given: 3.1

Challenge: Value lookup for logP; key = CC(C)OC(=O)CNC(=O)[C@@H]1C[C@H](C)CC[C@H]1C(C)C [Gly iPr Ester]
Response given: 3.3

###

Tested on: eyelids/ocular surface
Assay: Cooling after wiping closed eyelids with a towelette
Format: in vivo, human
Conditions: eye wipes, 1 mg/ml in 5%-95% v/v ethanol-distilled water
Description: A second method of testing was to take a towelette saturated with a test solution of the cooling agent and to wipe the towelette over the dosed eyelids. The presence or absence of cooling (or irritanty, if applicable) sensations was then recorded at 10 minute intervals until the cessation of coolness in two successive intervals. For testing of cooling compounds delivered to the eyelids with a towelette, the following procedures were used in the experiments of Table 3 and in Study 5 and 6. […]
Kindly supply the reported Duration of cooling, Eyelids/Ocular Surface values for the records listed here.
Field: numeric (min). Do not append units.

Challenge: So what's the measured Duration of cooling, Eyelids/Ocular Surface for this one? CCCOC(=O)[C@@H](C)NC(=O)[C@@H]1C[C@H](C)CC[C@H]1C(C)C
Response given: 65

Challenge: Look at this molecule and give its reported Duration of cooling, Eyelids/Ocular Surface. CCOC(=O)CNC(=O)[C@@H]1C[C@H](C)CC[C@H]1C(C)C [Gly Et Ester (WS-5), reference compound]
Response given: 15

Challenge: Given CC(C)OC(=O)[C@@H](C)NC(=O)[C@@H]1C[C@H](C)CC[C@H]1C(C)C , state its recorded Duration of cooling, Eyelids/Ocular Surface.
Response given: 360

Challenge: Look up Duration of cooling, Eyelids/Ocular Surface for this molecule: COC(=O)[C@@H](C)N(C)C(=O)[C@@H]1C[C@H](C)CC[C@H]1C(C)C
Response given: 0

###

assay: Log P of tested compounds; type: physicochemical
Decide by Log P: equal to or exceeding 3 means 1 (yes), less means 0 (no).

Challenge: State whether the measured Log P reaches 3, counting equality as reaching it, for COC(=O)CNC(=O)C1CC(C)CCC1C(C)C (centres unmarked) [Gly Me Ester (WS-31), reference compound]
Response given: 0 (no)

Challenge: Check the entry COC(=O)[C@@H]1CCCN1C(=O)[C@@H]1C[C@H](C)CC[C@H]1C(C)C [L-Pro Me Ester] : does Log P equal or exceed 3?
Response given: 1 (yes)

Challenge: Form field: Log P at least 3? Entry: CCCCOC(=O)CNC(=O)[C@@H]1C[C@H](C)CC[C@H]1C(C)C [Gly nBu Ester]
Response given: 1 (yes)

Challenge: Can CC(C)[C@@H]1CC[C@@H](C)C[C@H]1C(=O)N[C@@H]1CCOC1=O [D-Hsl] be said to have Log P at or above 3?
Response given: 0 (no)

Challenge: Assess whether reported Log P for CC(C)[C@@H]1CC[C@@H](C)C[C@H]1C(=O)N[C@H]1CCOC1=O [L-Hsl] sits at 3 or higher.
Response given: 0 (no)

Challenge: Entry CCNC(=O)C1CC(C)CCC1C(C)C (centres unmarked) [WS-3, reference compound] : is its Log P no less than 3?
Response given: 1 (yes)

Challenge: Record COC(=O)[C@@H](NC(=O)[C@@H]1C[C@H](C)CC[C@H]1C(C)C)C(C)C [L-Val Me Ester] ; criterion: Log P no lower than 3. Met?
Response given: 1 (yes)

Challenge: Is it the case that COC(=O)[C@H](CC(C)C)NC(=O)[C@@H]1C[C@H](C)CC[C@H]1C(C)C [L-Leu Me Ester] has Log P reaching or exceeding 3?
Response given: 1 (yes)
